B1: INTS3 (parent)
chain: EEITEESLEESVGKPLYLIFRNLC

variants of: B1; test: protein stability index of a GFP-peptide fusion (GPS, HEK-293T) (PSI 1-6); higher = more stable; details: c terminus: a fixed tail appended;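 further: lentivirally expressed fusions sorted by FACS into six bins by GFP to DsRed ratio, PSI derived from sequencing read proportions per bin multiplied by bin number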
QUANTITY MEASURED: protein stability index
One number for each entry.

[
  {
    "SEQUENCE CHANGE": "I3V",
    "protein stability index": 3.16
  },
  {
    "SEQUENCE CHANGE": "P15H",
    "protein stability index": 2.24
  },
  {
    "SEQUENCE CHANGE": "S7P",
    "protein stability index": 3.02
  },
  {
    "SEQUENCE CHANGE": "E6N",
    "protein stability index": 2.29
  },
  {
    "SEQUENCE CHANGE": "E9A",
    "protein stability index": 2.97
  },
  {
    "SEQUENCE CHANGE": "L8G",
    "protein stability index": 3.21
  },
  {
    "SEQUENCE CHANGE": "L8A",
    "protein stability index": 3.46
  },
  {
    "SEQUENCE CHANGE": "E9L",
    "protein stability index": 2.93
  }
]

// input: 5 variants below; output: protein stability index for each
1. Y17S
2. E6Y
3. T4D
4. L16G
5. G13F

OUT:
2.85
2.39
3.38
3.38
2.28

The values you see were collected from the supplement of paper PMC10567573.
